MEASUREMENT_TARGET: recombinant human 5-HT5A receptor (Homo sapiens, UniProt P47898)
Construct: membranes
Sequence (P47898 whole entry): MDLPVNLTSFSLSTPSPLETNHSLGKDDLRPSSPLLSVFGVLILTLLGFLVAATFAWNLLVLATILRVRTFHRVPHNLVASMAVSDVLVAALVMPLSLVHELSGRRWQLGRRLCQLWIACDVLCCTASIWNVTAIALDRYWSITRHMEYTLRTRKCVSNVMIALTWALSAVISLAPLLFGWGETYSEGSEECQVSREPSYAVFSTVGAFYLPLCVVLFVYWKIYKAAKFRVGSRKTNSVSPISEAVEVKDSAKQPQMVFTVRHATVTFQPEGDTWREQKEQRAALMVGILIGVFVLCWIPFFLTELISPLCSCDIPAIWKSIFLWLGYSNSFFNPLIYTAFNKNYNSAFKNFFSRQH
EXPERIMENTAL_PROTOCOL: [3H]LSD radioligand binding assay, membranes from HEK-EBNA cells transiently expressing 5-HT5A receptors
TEST_SETTINGS: [3H]LSD approximately 1 nM; HEK-EBNA cell membranes; SPA beads; 120 min at room temperature; Ki from IC50 by Cheng-Prussoff equation
Listed here are compounds together with their documented pKi.
Notebook: values listed as pKi are -log10 of the concentration (mol/L).

CC1NC(NC2CCc3ccccc32)=Nc2cc(Cl)c(Cl)cc21 (stereo not shown) [Example 10] yielded pKi of 7.15

Fc1cccc2c1CNC(NC1CCc3ccccc31)=N2 (stereo not shown) [Example 6] yielded pKi of 7.32

Clc1ccc(Cl)c(C2NC(NC3CCc4ccccc43)=Nc3ccccc32)c1 (stereo in doubt) [Example 20] yielded pKi of 6.26

Clc1ccc2c(c1)C(c1ccccc1Cl)NC(NC1CCc3ccccc31)=N2 (stereo in doubt) [Example 21] yielded pKi of 6.23

COc1ccc2c(c1)N=C(NC1CCc3ccccc31)NC2 (stereo not shown) [Example 15] yielded pKi of 6.51

Cc1ccc2c(c1)CNC(NC1CCc3ccccc31)=N2 (stereo not shown) [Example 7] yielded pKi of 7.30

CC1NC(NC2CCc3ccccc32)=Nc2ccccc21 (stereo not shown) [Example 9] yielded pKi of 7.10

----------
Listed here are compounds together with their documented Ki.
MEASUREMENT_TARGET: recombinant human 5-HT5A receptor (Homo sapiens, UniProt P47898)
Construct: membranes
EXPERIMENTAL_PROTOCOL: [3H]LSD radioligand binding assay, membranes from HEK-EBNA cells transiently expressing 5-HT5A receptors
TEST_SETTINGS: [3H]LSD approximately 1 nM; HEK-EBNA cell membranes; SPA beads; 120 min at room temperature; Ki from IC50 by Cheng-Prussoff equation

Consider the worked cases shown below.
INSERT INTO measurements (compound, measurement_target, measurement) VALUES
  ('c1ccc2c(c1)CNC(N[C@@H]1CCc3ccccc31)=N2 [Example 1]', 'recombinant human 5-HT5A receptor (Homo sapiens, UniProt P47898)', '25 nM'),
  ('c1ccc2c(c1)CNC(N[C@H]1CCc3ccccc31)=N2 [Example 17]', 'recombinant human 5-HT5A receptor (Homo sapiens, UniProt P47898)', '350 nM'),
  ('FC(F)(F)c1ccc2c(c1)N=C(NC1CCc3ccccc31)NC2 (stereo not shown) [Example 13]', 'recombinant human 5-HT5A receptor (Homo sapiens, UniProt P47898)', '260 nM'),
  ('Cc1cccc2c1CNC(NC1CCc3ccccc31)=N2 (stereo not shown) [Example 8]', 'recombinant human 5-HT5A receptor (Homo sapiens, UniProt P47898)', '55 nM');

Clc1ccc2c(c1)N=C(NC1CCc3ccccc31)NC2 (stereo not shown) [Example 12] yielded Ki of 174 nM

Cc1noc(C)c1C1NC(N[C@H]2CCc3ccccc32)=Nc2ccccc21 (stereo partly shown) [Example 26] yielded Ki of 1200 nM

Clc1ccc2c(c1Cl)CNC(NC1CCc3ccccc31)=N2 (stereo not shown) [Example 5] yielded Ki of 39 nM

c1ccc(C2NC(NC3CCc4ccccc43)=Nc3ccccc32)cc1 (stereo not shown) [Example 14] yielded Ki of 310 nM

COc1cc2c(cc1OC)N=C(NC1CCc3ccccc31)NC2 (stereo not shown) [Example 16] yielded Ki of 350 nM

Clc1ccc(Cl)c(C2NC(NC3CCc4ccccc43)=Nc3ccccc32)c1 (stereo in doubt) [Example 19] yielded Ki of 550 nM

Fc1ccc2c(c1)CNC(NC1CCc3ccccc31)=N2 (stereo not shown) [Example 4] yielded Ki of 35 nM

c1ccc2c(c1)CC[C@@H]2NC1=Nc2ccccc2C(c2ccsc2)N1 (stereo partly shown) [Example 24] yielded Ki of 293 nM

Cc1cccc2c1N=C(NC1CCc3ccccc31)NC2 (stereo not shown) [Example 3] yielded Ki of 32 nM

Clc1ccc2c(c1)C(c1ccccc1Cl)NC(NC1CCc3ccccc31)=N2 (stereo in doubt) [Example 22] yielded Ki of 655 nM

Cc1noc(C)c1C1NC(N[C@@H]2CCc3ccccc32)=Nc2ccccc21 (stereo partly shown) [Example 25] yielded Ki of 863 nM

COc1ccc2c(c1)CNC(NC1CCc3ccccc31)=N2 (stereo not shown) [Example 11] yielded Ki of 125 nM

Clc1cccc2c1CNC(NC1CCc3ccccc31)=N2 (stereo not shown) [Example 2] yielded Ki of 32 nM

c1ccc2c(c1)CC[C@H]2NC1=Nc2ccccc2C(c2ccsc2)N1 (stereo partly shown) [Example 23] yielded Ki of 133 nM

Clc1ccc2c(c1)C(c1ccccc1)NC(NC1CCc3ccccc31)=N2 (stereo not shown) [Example 18] yielded Ki of 410 nM
